- target.under.test: RUNX1 (UniProt Q01196)
- Sequence (Q01196 whole entry): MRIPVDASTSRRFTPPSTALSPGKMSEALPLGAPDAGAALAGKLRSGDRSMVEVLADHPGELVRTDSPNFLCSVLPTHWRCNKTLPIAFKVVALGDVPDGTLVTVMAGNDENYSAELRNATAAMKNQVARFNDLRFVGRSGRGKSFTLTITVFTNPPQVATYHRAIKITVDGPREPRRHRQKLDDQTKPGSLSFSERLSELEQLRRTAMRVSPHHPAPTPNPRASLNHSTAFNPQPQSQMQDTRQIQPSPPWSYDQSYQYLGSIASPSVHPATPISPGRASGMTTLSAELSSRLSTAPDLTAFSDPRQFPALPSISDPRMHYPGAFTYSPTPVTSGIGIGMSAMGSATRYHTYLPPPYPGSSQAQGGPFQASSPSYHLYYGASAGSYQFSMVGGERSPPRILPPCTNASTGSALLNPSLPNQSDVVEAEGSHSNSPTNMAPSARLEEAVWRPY
- procedure.text: RUNX1 binding intensity (PBM fluorescence), RUNX1 alone (arbitrary fluorescence units); higher = stronger binding
- applied.conditions: RUNX1 concentration 2 nM; ETS1 concentration 0 nM
If the reported RUNX1 binding intensity equals or exceeds 800, assign condition met. If not, assign condition not met.

macromolecule.sequence: GTTGTCTTCTTCCTGAGTAAACCGCAGTGCAGAGAA
target.under.test: RUNX1 (UniProt Q01196)
category: condition met
--
macromolecule.sequence: GTAAGTAGGCCAGGAAGTGGTCACTGCAGCATGTGA
target.under.test: RUNX1 (UniProt Q01196)
category: condition not met
--
macromolecule.sequence: CTCGTGCGTCACTTCCGCCCCGCAGACCCGCCCACT
target.under.test: RUNX1 (UniProt Q01196)
category: condition met
--
macromolecule.sequence: TCTTGCCCGGGTCGGAAATGGTGGTCACGAGCGCTT
target.under.test: RUNX1 (UniProt Q01196)
category: condition not met
--
macromolecule.sequence: TGTCTTCAGGAAGTGTAGCAGGTGTTGAGGTCAAGC
target.under.test: RUNX1 (UniProt Q01196)
category: condition not met
--
macromolecule.sequence: GAAAGGGTTCATCCAGGAAACCACAACCCAGTGCCG
target.under.test: RUNX1 (UniProt Q01196)
category: condition met
--
macromolecule.sequence: GCGCGGCGCGACCGGACGCTGCGGGCGGGGAAGAGG
target.under.test: RUNX1 (UniProt Q01196)
category: condition not met
--
macromolecule.sequence: TGAAGCCATGGTTTCCTGTCTGCGGCTCAGATCAAG
target.under.test: RUNX1 (UniProt Q01196)
category: condition not met

====

- target.under.test: RUNX1 (UniProt Q01196)
- procedure.text: RUNX1 binding intensity (PBM fluorescence), RUNX1 alone (arbitrary fluorescence units); higher = stronger binding
- applied.conditions: RUNX1 concentration 2 nM; ETS1 concentration 0 nM

macromolecule.sequence: GGCGGTGACCGGAAGAGCTGAGTCACCGCAGGCGAC
RUNX1 binding intensity: 813
//
macromolecule.sequence: GCAGAGTTTACAACAGGATGTGGTTATTGGCGCTGC
RUNX1 binding intensity: 777
//
macromolecule.sequence: AACGGACCCGGAAGGGGCAGGTCTTGTGGGCGGGTC
RUNX1 binding intensity: 822
//
macromolecule.sequence: GTTGTCTTGCCCAAAGGAAGTGGTTACTAGACCAGA
RUNX1 binding intensity: 793
//
macromolecule.sequence: TGACTTCCGGTCCGTAGTGGGGCCTGCGGTGGGAGT
RUNX1 binding intensity: 801
//
macromolecule.sequence: ACAGATCCAAGGAAGCATATCCCGCAAGCAACTGTT
RUNX1 binding intensity: 797
//
macromolecule.sequence: TCCTCCCACGGGAAGTGCCGTAGGACCGCAGCCCGA
RUNX1 binding intensity: 812

====

- target.under.test: ETS1 (UniProt P14921)
- Sequence: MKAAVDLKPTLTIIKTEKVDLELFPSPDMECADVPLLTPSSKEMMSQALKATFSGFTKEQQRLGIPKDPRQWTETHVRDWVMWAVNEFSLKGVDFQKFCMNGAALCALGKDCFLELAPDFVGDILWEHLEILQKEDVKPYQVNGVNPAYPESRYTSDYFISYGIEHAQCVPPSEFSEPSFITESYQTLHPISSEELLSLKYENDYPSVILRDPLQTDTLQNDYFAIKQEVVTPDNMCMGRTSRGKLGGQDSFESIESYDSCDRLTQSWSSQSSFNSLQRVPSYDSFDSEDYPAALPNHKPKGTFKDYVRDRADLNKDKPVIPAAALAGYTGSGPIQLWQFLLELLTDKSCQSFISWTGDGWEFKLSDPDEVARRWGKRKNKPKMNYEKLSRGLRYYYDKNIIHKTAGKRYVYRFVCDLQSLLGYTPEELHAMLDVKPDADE
- procedure.text: ETS1 binding intensity (PBM fluorescence), ETS1 alone (arbitrary fluorescence units); higher = stronger binding
- applied.conditions: ETS1 concentration 1 nM; RUNX1 concentration 0 nM
Quick reference: ETS1 binding intensity of the listed items.
measured.endpoint: ETS1 binding intensity

macromolecule.sequence: ATCTCAACTAGGAAATGTTTTTGTGACCACAAAGGG
measured.endpoint: ETS1 binding intensity
result.number: 620
--
macromolecule.sequence: GGCAACCGGCCCCGGAAGTTGCGGCAGGTGCGTCCA
measured.endpoint: ETS1 binding intensity
result.number: 5780
--
macromolecule.sequence: ACAGGAAATGACTTAGGGAAAGTCCCAACCGCAATC
measured.endpoint: ETS1 binding intensity
result.number: 2800
--
macromolecule.sequence: CCTTGCTGCAGGATGCTCTAACCACAAGCCCAGGAG
measured.endpoint: ETS1 binding intensity
result.number: 528
--
macromolecule.sequence: CCCTGGGGCCCCACTTCCTTGCCCACAAGAAAGGAC
measured.endpoint: ETS1 binding intensity
result.number: 395
--
macromolecule.sequence: TTCTGGACATGCTTCCTGTGGCTTCTCTCCTGCGCT
measured.endpoint: ETS1 binding intensity
result.number: 845
--
macromolecule.sequence: CAAGCACATTACGGAAGAGGCTGACCGCAAATACGA
measured.endpoint: ETS1 binding intensity
result.number: 595
--
macromolecule.sequence: CGAGCTCGCAAGAGGAAACCGCGGCGCGGAGGCAGC
measured.endpoint: ETS1 binding intensity
result.number: 681
--
macromolecule.sequence: GCTCAAGTACCGGAAAGGCCCGCAGAAAGAAGGGCA
measured.endpoint: ETS1 binding intensity
result.number: 1400
--
macromolecule.sequence: GGATGAACAGGAAGCTAAAGTAAATACCACAGTGAC
measured.endpoint: ETS1 binding intensity
result.number: 1710
--
macromolecule.sequence: TGACGGCCAGGAAGCCTGAAGCCGCAGGGGCCGCCG
measured.endpoint: ETS1 binding intensity
result.number: 345
--
macromolecule.sequence: GGGGGCGGAAGTTTCGGTGCATTGTGGGTTCTCCTG
measured.endpoint: ETS1 binding intensity
result.number: 1260
--
macromolecule.sequence: GGGGGAGTTTTCGGAAGCGCTAACCGCGTTGGGGCC
measured.endpoint: ETS1 binding intensity
result.number: 365
--
macromolecule.sequence: GGTCTCTGCTTCCGGTCCTTGTGGTAGCACCTCTGT
measured.endpoint: ETS1 binding intensity
result.number: 4510
--
macromolecule.sequence: GGAAAAGGAAGTGGCTTTGACTTGCGGGCAGGGAGA
measured.endpoint: ETS1 binding intensity
result.number: 1020
--
macromolecule.sequence: GCCCCGGAAGTGGCCCGGCTGTTGGCCGCAGCGGGA
measured.endpoint: ETS1 binding intensity
result.number: 2810
--
macromolecule.sequence: CCTCCAGGAAGCGATAAGTGACTGTGGTGGAGAGAG
measured.endpoint: ETS1 binding intensity
result.number: 663
--
macromolecule.sequence: GAAGAGGGTGGAGAAGGAAGTGGTCACACCACTTGC
measured.endpoint: ETS1 binding intensity
result.number: 1140
--
macromolecule.sequence: GATACTCTTCCTGTCATCCCATCCCCACAGCCTTAG
measured.endpoint: ETS1 binding intensity
result.number: 503
--
macromolecule.sequence: AGGGCTGAAACAGGATGTGGTGAGTGAGGTAGGGTG
measured.endpoint: ETS1 binding intensity
result.number: 6020
--
macromolecule.sequence: AGCGTTTCCTGCCTGTCTGGGGCTGACAAACCACAA
measured.endpoint: ETS1 binding intensity
result.number: 623
--
macromolecule.sequence: GACTGGTTTCCTGGTTTTGATGTGGTTTAGAGAAAA
measured.endpoint: ETS1 binding intensity
result.number: 504
--
macromolecule.sequence: CCAGCCACTTCCGCTCGTCCGCCTAATACCGCGCCT
measured.endpoint: ETS1 binding intensity
result.number: 2130
--
macromolecule.sequence: CTGAAGGCTGGGGAGGAAGTGACCGCCCTCATATGC
measured.endpoint: ETS1 binding intensity
result.number: 2120
--
macromolecule.sequence: AGTTTCTTCTTTCCGGTGGGTTTGTGGTCTTGCTGA
measured.endpoint: ETS1 binding intensity
result.number: 1160
--
macromolecule.sequence: TCGCTTCCGGTGTCGGTTACAGACTGTGGTTGCCAT
measured.endpoint: ETS1 binding intensity
result.number: 3090
--
macromolecule.sequence: CCATGAGGAGGGAGGAAATAGTGGTACGAGGGCTGC
measured.endpoint: ETS1 binding intensity
result.number: 1040
--
macromolecule.sequence: CTCGCGATTCCTCTTCCGCTGCGGTCTCCTTAACAC
measured.endpoint: ETS1 binding intensity
result.number: 634
--
macromolecule.sequence: CCCGGAGGACGTCCGGCCTCTGTGAGCCGCAACCTT
measured.endpoint: ETS1 binding intensity
result.number: 440
--
macromolecule.sequence: GATTTGTCACAGGAAGTACCCACAGGCCAAGAAGTG
measured.endpoint: ETS1 binding intensity
result.number: 5230
--
macromolecule.sequence: CGGGACCTGTTTCCTTGGGAACCACAAGATAAGACC
measured.endpoint: ETS1 binding intensity
result.number: 407
--
macromolecule.sequence: TACCACCTCAGGATGTCTGAACCACATGCAAGCAGG
measured.endpoint: ETS1 binding intensity
result.number: 439
--
macromolecule.sequence: GGCGCGGGCTGCTTCCGGTCTGCGGGCCTGAGGAGG
measured.endpoint: ETS1 binding intensity
result.number: 5650
--
macromolecule.sequence: GTGAGTCACTTCCTGACCATGTGGGTTTTTGGTACG
measured.endpoint: ETS1 binding intensity
result.number: 568
--
macromolecule.sequence: GCAGGCGGAGCTTGAGGAAACCGCAGATAAGTTTTT
measured.endpoint: ETS1 binding intensity
result.number: 463
--
macromolecule.sequence: GCCGCGCGGAAGCCTCCGCCCTGTGGTTTTGGAGCC
measured.endpoint: ETS1 binding intensity
result.number: 368
--
macromolecule.sequence: AAAGTTGTATAGTGAGGATGTGGTCAAGAACTCACC
measured.endpoint: ETS1 binding intensity
result.number: 577
--
macromolecule.sequence: GGACTGCGTTTCCGGACACTGCGGGTGCCGGTAGCC
measured.endpoint: ETS1 binding intensity
result.number: 1290
--
macromolecule.sequence: GGCACTTCCGGTCCTGACCTGAAGCGGTAACCGTCA
measured.endpoint: ETS1 binding intensity
result.number: 8390
--
macromolecule.sequence: TTCTCATCCGGCCGGCTTGCTTTCCCCTGCGGTCGT
measured.endpoint: ETS1 binding intensity
result.number: 394
--
macromolecule.sequence: CCCTGGACGGGAAGCGGCGGCCAGATCCGCAAGCCC
measured.endpoint: ETS1 binding intensity
result.number: 584
--
macromolecule.sequence: CTGTTTCCTGCCTTTGCTGTCTGTGACCGCATCAGT
measured.endpoint: ETS1 binding intensity
result.number: 478
--
macromolecule.sequence: CTTTGCTGCCGCCTTCCTGTGCGGGGCCGTGGCGGC
measured.endpoint: ETS1 binding intensity
result.number: 493
